Origin of values: ChEMBL document CHEMBL3526065

Field: pIC50. Provide a value for each of the compounds that follow.
Test: Antioxidant activity assessed as DPPH radical scavenging activity
Assay type: physicochemical
One number for each entry, as −log10 of the molar value.

Some solved entries appear below for comparison.
**Query** Given the entry CCCCCCCCC[C@H](O)CC(=O)CCc1ccc(O)c(OC)c1 , report its measured pIC50.
**Result** 4.92

**Query** Again, but for CCCCCCC[C@H](O)CC(=O)CCc1ccc(O)c(OC)c1
**Result** 4.70

**Query** What about this compound? CCCCC/C=C/C(=O)CCc1ccc(O)c(OC)c1
**Result** 5.10

Kindly review the next compound as well.
**Query** So what does the record say about pIC50 for CCCCC[C@H](O)CC(=O)CCc1ccc(O)c(OC)c1 ?
**Result** 4.55
